// provenance: ChEMBL document CHEMBL4689842

Give Total Cell Count for every item shown.
# Test system: Fibroblast
# assay_remarks: Multiplex assay against human fibroblast
# Format: toxicity, cell-based
# measurement_parameters: 24 h, 10 µM, compound concentration 10 uM, replicate 1
Could you keep your reply to the number by itself?

query: Hello, I am looking for reported Total Cell Count with Fibroblast for COc1cccc([C@@H](C)NCCCc2ccccc2Cl)c1.Cl [TECALCET HYDROCHLORIDE] . Could you help?
result: 178

query: Repeat for the following compound: "CNc1nc(NCc2ccc(NS(C)(=O)=O)cc2Cl)cc(-c2ccccn2)n1"
result: 174

query: Repeat for the following compound: "COc1ncc(-c2ccc3nccc(-c4ccnnc4)c3c2)cc1NS(=O)(=O)c1ccc(F)cc1F"
result: 89

query: Repeat for the following compound: "OC1(c2ccc(Cl)cc2)CCN(Cc2c[nH]c3ccccc23)CC1"
result: 224

query: Repeat for the following compound: "Cc1nc(-c2cn3c(n2)-c2ccc(-c4cnn(C(C)(C)C(N)=O)c4)cc2OCC3)n(C(C)C)n1"
result: 188

query: Repeat for the following compound: "CN1CCN(c2ccc(OC(F)(F)F)c(Nc3ncc4c(n3)-c3c(c(C(N)=O)nn3CCO)CC4)c2)CC1"
result: 127

query: Repeat for the following compound: C[C@@H](NCCCc1cccc(C(F)(F)F)c1)c1cccc2ccccc12.Cl [CINACALCET HYDROCHLORIDE]
result: 208

query: Repeat for the following compound: C=CC(=O)Nc1cc2c(Nc3ccc(F)c(Cl)c3)ncnc2cc1OCCCN1CCOCC1.Cl.Cl [CANERTINIB DIHYDROCHLORIDE]
result: 220

* * *

# Test system: HEK-293T
# assay_remarks: Multiplex assay against HEK293T
# Assay type: toxicity, cell-based
# measurement_parameters: human, 48 h, 10 µM, compound concentration 10 uM, replicate 1
reported_metric: Population Apoptotic (%)
// return the numeric value with its unit appended

query: Reported Population Apoptotic (%) for CNCc1ccccc1-c1csc([C@H](C)Nc2nc(C)nc3cc(OC)c(OC)cc23)c1 [BAY-294] : what is it?
result: 79%

query: Repeat for the following compound: "C=CC(=O)Nc1cccc(C(=O)Nc2ccc(Nc3cc(-c4[nH]c(SC)nc4C)ccn3)cc2)c1"
result: 52%

query: Repeat for the following compound: COc1ncc(-c2ccc3nccc(-c4ccnnc4)c3c2)cc1NS(=O)(=O)c1ccc(F)cc1F [OMIPALISIB]
result: 40%

query: Repeat for the following compound: CN1CCCC(n2nc(Cc3ccc(Cl)cc3)c3ccccc3c2=O)CC1.Cl (stereo not given) [AZELASTINE HYDROCHLORIDE]
result: 79%

query: Repeat for the following compound: "Cc1[nH]c(/C=C2\C(=O)Nc3ccc(S(=O)(=O)N(C)c4cccc(Cl)c4)cc32)c(C)c1C(=O)N1CCN(C)CC1"
result: 92%

* * *

Give Population Pyknosed Nuclei (%) for every item shown.
# Tested on: Fibroblast
# assay_remarks: Multiplex assay against human fibroblast
# Assay type: toxicity, cell-based
# measurement_parameters: 48 h, 10 µM, compound concentration 10 uM, replicate 2
Give your result in % as a bare value.

query: Hello, I am looking for reported Population Pyknosed Nuclei (%) with Fibroblast for "CN(C)C(=O)/C(C#N)=C/c1ccc(-c2nc3cnc4[nH]ccc4c3n2C2CCCCC2)o1" . Could you help?
result: 11

query: Repeat for the following compound: "CC(C)(O)CNc1ncc(-c2ccnc(Nc3ccnc(Cl)c3)n2)c(CC2CC2)n1"
result: 17

query: Repeat for the following compound: "NC(=O)Nc1cc(-c2cccc(F)c2)sc1C(=O)N[C@H]1CCCNC1"
result: 2

query: Repeat for the following compound: "Cc1cc(C)cc(-c2cnc3cc(Cl)c(-c4cccc(O)c4)cc3c2OCCCN)c1"
result: 16

query: Repeat for the following compound: "OC1(c2ccc(Cl)cc2)CCN(Cc2c[nH]c3ccccc23)CC1"
result: 35

query: Repeat for the following compound: "COc1ncc(-c2ccc3nccc(-c4ccnnc4)c3c2)cc1NS(=O)(=O)c1ccc(F)cc1F"
result: 1

query: Repeat for the following compound: "CN(C)CC#Cc1ccc(OCCCc2sc(N3CCc4cccc(C(=O)Nc5nc6ccccc6s5)c4C3)nc2C(=O)O)c(F)c1"
result: 17
